experiment: blockers of DNA damage checkpoint Chk1 activation – imaging, HeLa, hydroxyurea, phospho-Chk1 antibody, percent positive cells, primary screen (AID 1186); conditions: hydroxyurea-induced phospho-Chk1 immunofluorescence imaging, higher = more signal
I'd be grateful if you could share measured z-score for these entries.
Numbers only.

# COMPOUND, READOUT, MEASURED
records = [
    ("COC(=O)C(CC#Cc1ccc2c(c1)[C@]1(C(=O)N2)[C@H](c2ccccc2OCCO)N2[C@H](c3ccccc3)[C@H](c3ccccc3)OC(=O)[C@H]2[C@@H]1C(N)=O)C(=O)OC", "z-score", 0.202),
    ("COc1ccc(CCNC(=O)[C@@]2(c3ccc([N+](=O)[O-])cc3)CC(=O)N(CC34CC5CC(CC(C5)C3)C4)[C@@H]2c2ccc(CO)cc2I)cc1", "z-score", -0.155),
    ("CC(C)[Si](C#CCCCC#N)(Oc1ccccc1Br)C(C)C", "z-score", 0.365),
    ("CCOc1ccc(N2C(=O)CSC2c2cccc([N+](=O)[O-])c2)cc1 (stereo unspecified)", "z-score", -0.139),
    ("COCCOC(=O)N1C(=O)[C@@]2(c3ccccc31)[C@H](C(=O)N1CCc3cc(OC)c(OC)cc3C1)[C@H]1C(=O)O[C@H](c3ccccc3)[C@H](c3ccccc3)N1[C@@H]2c1ccc(O)cc1", "z-score", -0.437),
]

Lab note: each compound below needs its z-score filled in.
1. CC(C)N1CC=CC23O[C@@H]4C=CCOC(=O)[C@@H]4[C@H]2C(=O)N(CCCCCO)[C@@H]3C1=O (stereo partly specified)
2. CCCC=C(CCC)[C@@H](NC(=O)OCC(C)C)c1ccccc1
3. O=C1O[C@@H](c2ccccc2)[C@@H](c2ccccc2)N2[C@@H](c3ccc(OCCO)cc3)[C@]3(C(=O)Nc4ccc(C#CC5=CCCCC5)cc43)[C@@H](C(=O)N3CCCCCCC3)[C@H]12
4. O=C(NCCN1CCOCC1)[C@@H]1c2ccccc2C(=O)N(Cc2cc(C(F)(F)F)cc(C(F)(F)F)c2)[C@H]1c1ccc(CO)cc1
5. [N-]=[N+]=Nc1ccccc1C[C@]1(C(=O)N2CCCCC2)COC(c2ccc(OCCCO)cc2)=N1
6. COc1cc(OC)c(C(O)C2C=CC3C(=O)NC(=O)C3N2Nc2ccccn2)cc1Br (stereo unspecified)

0.0031
0.714
0.201
-0.24
0.118
-0.143

Lab note: each compound below needs its z-score filled in.
1. CC(C)CN1C(=O)[C@@]2(c3ccc([N+](=O)[O-])cc3)CC(=O)N(C3CCCCC3)[C@@H]2c2ccc(CO)cc21
2. COC(=O)[C@@]1(Cc2ccc(F)cc2)[C@H]2c3cc(C(=O)N(C)C)n(Cc4cc(C)n(C)n4)c3C[C@H]2CN1C(=O)c1ccccc1
3. CC(=O)n1cc(C(O)C2C=CC3C(=O)NC(=O)C3N2Nc2ccccn2)c2ccccc21 (stereo unspecified)
4. O=C1OCC=C[C@H]2OC34C=CCN(CCN5CCOCC5)C(=O)[C@H]3N(CCO)C(=O)[C@@H]4[C@@H]12 (stereo partly specified)
5. COC(=O)[C@@]1(Cc2ccc(OC)cc2)[C@H]2c3cc(C(=O)N(C)C)n(Cc4ccc(C(F)(F)F)nc4)c3C[C@H]2CN1C(=O)c1ccccc1
6. C=CCOC(=O)[C@H]1[C@@H]2C(=O)O[C@@H](c3ccccc3)[C@@H](c3ccccc3)N2[C@@H](c2ccc(OCCOC(=O)[C@@H]3C[C@@H]4C(=O)N5CCC[C@H]5C(=O)N4[C@@H]3c3cccc(OCCO)c3)cc2)[C@]12C(=O)Nc1ccc(I)cc12

1. 0.0566
2. 0.669
3. 0.5
4. -0.474
5. 0.832
6. 0.351

Lab note: each compound below needs its z-score filled in.
1. COc1ccc(CCNC(=O)[C@@]2(C)c3ccccc3C(=O)N(c3ccc(C)cn3)[C@H]2c2ccc(CO)cc2)cc1
2. COCCCNC(=O)[C@@]1(Cc2ccccc2)N=C(c2ccc(OCCCO)cc2)O[C@H]1c1ccccc1CN=[N+]=[N-]
3. COC(=O)[C@@]1(Cc2ccc(OC)cc2)[C@H]2c3cc(C(=O)N4CCCC4)n(CCc4ccc(O)c(O)c4)c3C[C@H]2CN1C(=O)c1ccccc1
4. O=C1OCCC/C=C\[C@H]2OC34C=CCN(c5ccc6ccccc6c5)C(=O)[C@H]3N(CCCCCO)C(=O)[C@@H]4C12 (stereo partly specified)

1: 0.366; 2: 0.0048; 3: 0.264; 4: 0.715
